Test: Pharmacokinetic test, oral, SD rats
Assay type: in vivo
Details: rat, oral 10 mg/kg, plasma, read-out: T½ (converted)
experimental_readout: half-life (h)

compound | half-life (h)
N#Cc1ccnc(NC(=O)c2ccc(-c3nc(C4CCC(CO)OC4)n4ccnc(N)c34)cc2)c1 (stereo not shown) [Compound 103] | 1.73
Cc1cc(Nc2ncnc3ccc(NC4=NC(C)(C)CO4)cc23)ccc1Oc1ccn2ncnc2c1 [Tucatinib, reference compound] | 1.72
COc1cccc(Oc2ccc(-c3nc(C4CCC(CO)OC4)n4ccnc(N)c34)cc2)c1C#N (single isomer, unassigned) [Compound 89-P1] | 1.16
Nc1nccn2c(C34CCC(CO)(CC3)OC4)nc(-c3ccc(C(F)(F)c4ccccc4)cc3)c12 [Compound 125] | 4.19
COc1cccc(Oc2ccc(-c3nc(C4CCC(CO)OC4)n4ccnc(N)c34)cc2)c1 (stereo not shown) [Compound 101] | 1.25
Nc1nccn2c(C34CCC(CO)(CC3)OC4)nc(-c3ccc(C(=O)Nc4ccccn4)cc3)c12 [Compound 34] | 1.7
Nc1nccn2c(C3CCC(CO)OC3)nc(-c3ccc(C(=O)Nc4cc(C(F)(F)F)ccn4)cc3)c12 (single isomer, unassigned) [Compound 109-P1] | 2.83
Nc1nccn2c(C34CCC(CO)(CC3)OC4)nc(-c3ccc(C(F)(F)c4cccc(Cl)c4F)cc3)c12 [Compound 152] | 2.82

(A) COc1ccccc1C(=O)NCc1ccc(-c2nn(C3CCC(CO)OC3)c3ncnc(N)c23)cc1 (single isomer, unassigned) [Compound 60-B]
(B) COc1cccc(Oc2ccc(-c3nc(C4CCC(CO)OC4)n4ccnc(N)c34)cc2)c1F (stereo not shown) [Compound 5]
Query: From the recorded data, which exceeds the other in half-life: A or B ? Lab note: record the label of whichever item you select.
Reply: A
